- Tested on: NCI-H1944
- method.notes: normalised cell viability (NPI; 0 = phenylarsine oxide control, 1 = DMSO control) (fraction of DMSO control); higher = more viable cells (less compound toxicity)
- protocol.conditions: glucocorticoid arm: vehicle; compound 1 µM; 6 days
Where a name gives a salt, the structure may show the parent alone. In all, about 1,900 compounds were measured (“normalised cell viability (NPI; 0 = phenylarsine oxide control, 1 = DMSO control)”: median about 1, lowest 2% from about 0.039 on). The sample as a whole holds a higher share of the lowest values than the screen did.
value.kind: normalised cell viability

Answered cases to consult:
> print(dat)
                                   compound                 value.kind  endpoint.value
1  CCN(CC)CCCC(C)Nc1ccnc2cc(Cl)ccc12 (stereo not drawn) [Chloroquine diphosphate]  normalised cell viability           0.979
2  CCCCC(=O)OCC(=O)[C@]1(O)Cc2c(O)c3c(c(O)c2[C@@H](O[C@H]2C[C@H](NC(=O)C(F)(F)F)[C@H](O)[C@H](C)O2)C1)C(=O)c1c(OC)cccc1C3=O  normalised cell viability           0.228
3  CCCN(CCc1ccccc1)C1CCc2c(O)cccc2C1 (racemic) [(±)-PPHT hydrochloride]  normalised cell viability            1.01
4        N[C@H](C(=O)O)[C@H]1C[C@@H]1C(=O)O  normalised cell viability           0.985
5  CCCCCCCCCCCCCCCC(=O)OC(CC(=O)O)C[N+](C)(C)C (racemic) [Palmitoyl-DL-Carnitine chloride]  normalised cell viability            1.01

Q: Answer with the recorded normalised cell viability of CC(/C=C/C(=O)NO)=C\[C@@H](C)C(=O)c1ccc(N(C)C)cc1 only.
A: -0.000312

Q: Answer with the recorded normalised cell viability of CC(C=CC(=O)NO)=CC(C)C(=O)c1ccc(N(C)C)cc1 (stereo not drawn) only.
A: 0.00709

Q: Answer with the recorded normalised cell viability of FC(F)(F)c1cc(COC2CCCNC2c2ccccc2)cc(C(F)(F)F)c1 [L-733,060 hydrochloride] only.
A: 0.996

----------
- Test system: NCI-H1944;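 note: CTB read-out in 384-well plates, triplicate wells, NPI normalised per plate against 1 µM phenylarsine oxide (0) and 0.1% DMSO (1) controls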
- method.notes: normalised cell viability (NPI; 0 = phenylarsine oxide control, 1 = DMSO control) (fraction of DMSO control); NCI-H1944 is a non-small cell lung cancer line; higher = more viable cells (less compound toxicity)
- protocol.conditions: glucocorticoid arm: hydrocortisone 2.75 uM co-treatment; compound 1 µM; 6 days
Where a name gives a salt, the structure may show the parent alone. Whole data set: some 1,900 compounds, median “normalised cell viability (NPI; 0 = phenylarsine oxide control, 1 = DMSO control)” near 1, cut for the lowest 2% near 0.039. Only a selection was taken, and the lowest values are over-represented in it overall.
Measured normalised cell viability by item

Answered cases to consult:
compound	normalised cell viability
CCS(=O)(=O)Nc1ccc2[nH]c(O)c(C(=Nc3ccc(CN4CCCCC4)cc3)c3ccccc3)c2c1 [Hesperadin]	0.435
Nc1ncnc2c1nc(Br)n2C1OC2COP(=O)(O)O[C@@H]2C1O (stereo partly drawn) [8-Bromo-cAMP sodium]	0.986
CC(=O)NCC(=O)N1[C@@H]2CC[C@H]1c1ccc(Nc3ncc(C(F)(F)F)c(NC4CCC4)n3)cc12	0.712
CN(C)C(=O)C(CCN1CCC(O)(c2ccc(Cl)cc2)CC1)(c1ccccc1)c1ccccc1 [Loperamide hydrochloride]	0.995
Cc1c(F)ccc(C(=O)Nc2cc([N+](=O)[O-])ccc2N2CCN(C)CC2)c1Cl	1.03

Q: Answer with the recorded normalised cell viability of Clc1ccc(C2(c3ccc(-c4cn[nH]c4)cc3)CCNCC2)cc1 only.
A: 0.968

Q: Answer with the recorded normalised cell viability of CC(C)(C)c1cnc(CSc2cnc(NC(=O)C3CCNCC3)s2)o1 only.
A: 0.0382
